- TEST SYSTEM: human recombinant HDAC6 (Homo sapiens (Human))
- ASSAY DETAILS: HDAC6 enzyme activity inhibition assay (HDAC Fluorimetric Drug Discovery Kit)
- MEASUREMENT CONDITIONS: human recombinant HDAC6, same protocol as HDAC1 test
Kindly apply the following: met if IC50 is less than 50 nM, not met in every other case.

See these solved cases before continuing.
> print(dat)
                                   compound  class.name
1  CN1CCN(S(=O)(=O)N(Cc2ccc(-c3nnc(C(F)F)o3)cc2F)c2cccnc2)CC1 [Compound 11320]     not met
2  C[C@@H]1CN(S(=O)(=O)N(Cc2ccc(-c3nnc(C(F)F)o3)cc2)c2ccccc2)C[C@H](C)N1C(=O)C(F)F [Compound 11644]     not met
3  Cc1cccc(N(Cc2ccc(-c3nnc(C(F)F)o3)cn2)S(=O)(=O)N2CCN(C)[C@H](C)C2)c1 [Compound 11823]         met

Q. is_below(IC50, 50 nM) for CS(=O)(=O)N1CCN(S(=O)(=O)N(Cc2ccc(-c3nnc(C(F)F)o3)cc2F)c2cccnc2)CC1 [Compound 11319] ?
A. not met

Q. is_below(IC50, 50 nM) for CCN1[C@H](C)CN(S(=O)(=O)N(Cc2ccc(-c3nnc(C(F)F)o3)cn2)c2ccccc2)C[C@@H]1C [Compound 11661] ?
A. not met

Q. is_below(IC50, 50 nM) for O=S(=O)(N1CCN(C2CCC2)CC1)N(Cc1ccc(-c2nnc(C(F)F)o2)cc1)c1ccccc1 [Compound 11674] ?
A. not met

Q. is_below(IC50, 50 nM) for CC(=O)N1CCN(S(=O)(=O)N(Cc2ccc(-c3nnc(C(F)(F)F)o3)cc2F)c2cccc(F)c2)CC1 [Compound 11311] ?
A. not met

====

- TEST SYSTEM: human recombinant HDAC6 (Homo sapiens (Human))
- ASSAY DETAILS: HDAC6 enzyme activity inhibition assay (HDAC Fluorimetric Drug Discovery Kit)
- Format: biochemical
- MEASUREMENT CONDITIONS: human recombinant HDAC6, same protocol as HDAC1 test
Counter-ions that a name gives are not always drawn.
PROPERTY: pIC50
Please treat pIC50 as minus the base-10 logarithm of the molar concentration.

Reference set, count: 3
> print(dat)
                                   compound  measured.value
1  O=S(=O)(N1CCNCC1)N(Cc1ccc(-c2nnc(C(F)(F)F)o2)cc1F)c1cccnc1 [Compound 11321, Dihydrochloride]            7.36
2  CC(C)N1CCN(S(=O)(=O)N(Cc2ccc(-c3nnc(C(F)(F)F)o3)cc2F)c2ccccc2)CC1 [Compound 11300]            6.94
3  CC(C)N1CCN(S(=O)(=O)N(Cc2ccc(-c3nnc(C(F)F)o3)cc2)c2ccc(F)c(Cl)c2)CC1 [Compound 11651]            6.32

Could you now look at the following compound, please?
Q. Give its pIC50 value. Item: CC(=O)N1CCN(S(=O)(=O)N(Cc2ccc(-c3nnc(C(F)F)o3)cc2F)c2ccccc2)CC1 [Compound 11302]
A. 7.49

====

- TEST SYSTEM: human recombinant HDAC6 (Homo sapiens (Human))
- ASSAY DETAILS: HDAC6 enzyme activity inhibition assay (HDAC Fluorimetric Drug Discovery Kit)
- Assay type: biochemical
- MEASUREMENT CONDITIONS: HDAC6 versus HDAC1
Binning scheme for HDAC6 selectivity (fold): group A: < 1000 fold; group B: ≥ 1000 fold and < 2000 fold; group C: ≥ 2000 fold

See these solved cases before continuing.
> print(dat)
                                smiles.repr  class.name
1  O=S(=O)(N1CCN(C2CCC2)CC1)N(Cc1ccc(-c2nnc(C(F)F)o2)cc1)c1ccc(F)c(Cl)c1     group A
2  C[C@@H]1CN(S(=O)(=O)N(Cc2ccc(-c3nnc(C(F)F)o3)cn2)c2cccc(Cl)c2)CCN1C     group C
3  C[C@@H]1CN(S(=O)(=O)N(Cc2ccc(-c3nnc(C(F)F)o3)cc2)c2ccccc2)C[C@H](C)N1C     group B
4  CCC(=O)N1CCN(S(=O)(=O)N(Cc2ccc(-c3nnc(C(F)(F)F)o3)cc2F)c2ccccc2)CC1     group A
5  CC(C)C(=O)N1CCN(S(=O)(=O)N(Cc2ccc(-c3nnc(C(F)(F)F)o3)cc2F)c2ccccc2)CC1     group A

Q. Hi there! Could you help me figure out the category for CC(=O)N1CCN(S(=O)(=O)N(Cc2ccc(-c3nnc(C(F)F)o3)cc2F)c2cccc(F)c2)CC1 please?
A. group C

Q. Hi there! Could you help me figure out the category for CCN1[C@H](C)CN(S(=O)(=O)N(Cc2ccc(-c3nnc(C(F)F)o3)cn2)c2ccccc2)C[C@@H]1C please?
A. group B

Q. Hi there! Could you help me figure out the category for O=S(=O)(N1CCN(C2COC2)CC1)N(Cc1ccc(-c2nnc(C(F)(F)F)o2)cc1F)c1ccccc1 please?
A. group A

====

- TEST SYSTEM: human recombinant HDAC6 (Homo sapiens (Human), UniProt Q9UBN7)
- Sequence (Q9UBN7 whole entry): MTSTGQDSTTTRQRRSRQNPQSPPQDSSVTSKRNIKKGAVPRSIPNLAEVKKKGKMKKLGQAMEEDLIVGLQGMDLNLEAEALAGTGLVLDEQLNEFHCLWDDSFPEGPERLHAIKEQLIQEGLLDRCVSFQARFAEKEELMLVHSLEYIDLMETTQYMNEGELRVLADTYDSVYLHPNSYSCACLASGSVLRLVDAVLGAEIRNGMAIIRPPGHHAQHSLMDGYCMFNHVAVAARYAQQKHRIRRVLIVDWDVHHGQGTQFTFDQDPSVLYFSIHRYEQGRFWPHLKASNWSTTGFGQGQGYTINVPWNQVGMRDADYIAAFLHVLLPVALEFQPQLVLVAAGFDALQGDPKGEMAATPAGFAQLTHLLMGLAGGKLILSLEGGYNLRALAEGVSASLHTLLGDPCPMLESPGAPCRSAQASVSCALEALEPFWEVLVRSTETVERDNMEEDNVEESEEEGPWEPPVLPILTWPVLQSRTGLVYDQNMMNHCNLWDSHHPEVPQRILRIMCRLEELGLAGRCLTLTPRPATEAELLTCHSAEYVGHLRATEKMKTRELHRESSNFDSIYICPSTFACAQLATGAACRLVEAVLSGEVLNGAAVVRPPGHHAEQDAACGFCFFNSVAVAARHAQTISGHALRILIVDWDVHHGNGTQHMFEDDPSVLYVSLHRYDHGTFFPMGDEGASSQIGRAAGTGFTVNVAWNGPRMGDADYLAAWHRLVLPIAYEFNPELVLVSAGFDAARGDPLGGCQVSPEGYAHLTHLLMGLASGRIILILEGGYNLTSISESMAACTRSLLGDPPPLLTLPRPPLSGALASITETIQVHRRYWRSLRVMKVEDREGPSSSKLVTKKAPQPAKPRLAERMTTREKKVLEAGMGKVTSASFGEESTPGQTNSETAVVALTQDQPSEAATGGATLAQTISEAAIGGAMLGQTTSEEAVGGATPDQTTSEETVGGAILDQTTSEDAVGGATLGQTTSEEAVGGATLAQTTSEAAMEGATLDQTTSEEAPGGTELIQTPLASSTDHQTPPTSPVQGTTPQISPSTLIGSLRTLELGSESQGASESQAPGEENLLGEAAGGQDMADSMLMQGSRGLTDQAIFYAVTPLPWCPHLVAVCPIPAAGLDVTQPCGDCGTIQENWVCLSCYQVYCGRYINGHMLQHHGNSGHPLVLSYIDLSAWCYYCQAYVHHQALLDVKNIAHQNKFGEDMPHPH
- ASSAY DETAILS: HDAC6 enzyme activity inhibition assay (HDAC Fluorimetric Drug Discovery Kit)
- MEASUREMENT CONDITIONS: human recombinant HDAC6, same protocol as HDAC1 test
# pIC50 values compiled below
Please treat pIC50 as minus the base-10 logarithm of the molar concentration.

> print(dat)
                                smiles.repr  property  measured.value
1  CC(=O)N1[C@H](C)CN(S(=O)(=O)N(Cc2ccc(-c3nnc(C(F)F)o3)cn2)c2ccccc2)C[C@@H]1C     pIC50            7.59
2  CN1CCN(S(=O)(=O)N(Cc2ccc(-c3nnc(C(F)(F)F)o3)cc2F)c2ccccc2)CC1     pIC50            7.12
3  C[C@@H]1CN(S(=O)(=O)N(Cc2ccc(-c3nnc(C(F)F)o3)cn2)c2cccc(Cl)c2)CCN1C1COC1     pIC50            7.39
4  C[C@@H]1CN(S(=O)(=O)N(Cc2ccc(-c3nnc(C(F)F)o3)cn2)c2cccc(Cl)c2)CCN1C     pIC50            7.44
5  CC(C)N1CCN(S(=O)(=O)N(Cc2ccc(-c3nnc(C(F)F)o3)cn2)c2ccc(F)c(Cl)c2)CC1     pIC50            7.68
6  CN(CCN1CCN(S(C)(=O)=O)CC1)S(=O)(=O)N(Cc1ccc(-c2nnc(C(F)F)o2)cc1)c1ccccc1     pIC50            6.79

Q. Give its pIC50 value. Item: O=S(=O)(N1CCN(C2COC2)CC1)N(Cc1ccc(-c2nnc(C(F)F)o2)cc1F)c1ccccc1
A. 7.59

Q. Give its pIC50 value. Item: O=S(=O)(N1CCN(C2CCC2)CC1)N(Cc1ccc(-c2nnc(C(F)F)o2)cn1)c1cccc(Cl)c1
A. 7.44

====

- TEST SYSTEM: human recombinant HDAC6 (Homo sapiens (Human))
- ASSAY DETAILS: HDAC6 enzyme activity inhibition assay (HDAC Fluorimetric Drug Discovery Kit)
- Assay type: biochemical
- MEASUREMENT CONDITIONS: HDAC6 versus HDAC1
# HDAC6 selectivity (fold) values compiled below
Kindly answer with a numeric value in fold, unit omitted.

Reference set, count: 2
> print(dat)
                                smiles.repr  reading.unit  measured.value
1  Cc1cccc(N(Cc2ccc(-c3nnc(C(F)F)o3)cn2)S(=O)(=O)N2CCN(C)[C@@H](C)C2)c1          fold            1923
2  CC(C)N1CCN(S(=O)(=O)N(Cc2ccc(-c3nnc(C(F)F)o3)cc2)c2ccc(F)c(Cl)c2)CC1          fold             207

Q. Give its HDAC6 selectivity (fold) value. Item: CN1CCN(S(=O)(=O)N(Cc2ccc(-c3nnc(C(F)(F)F)o3)cc2F)c2ccccc2)CC1
A. 1333

Q. Give its HDAC6 selectivity (fold) value. Item: CC(=O)N1[C@H](C)CN(S(=O)(=O)N(Cc2ccc(-c3nnc(C(F)F)o3)cn2)c2ccccc2)C[C@@H]1C
A. 2753

Q. Give its HDAC6 selectivity (fold) value. Item: O=S(=O)(N1CCN(C2COC2)CC1)N(Cc1ccc(-c2nnc(C(F)F)o2)cn1)c1ccc(F)c(Cl)c1
A. 7142

====

- TEST SYSTEM: human recombinant HDAC6 (Homo sapiens (Human), UniProt Q9UBN7)
- ASSAY DETAILS: HDAC6 enzyme activity inhibition assay (HDAC Fluorimetric Drug Discovery Kit)
- Format: biochemical
- MEASUREMENT CONDITIONS: HDAC6 versus HDAC1
Param threshold (2000 fold) applies to HDAC6 selectivity (fold); output Yes when value >= threshold, No when value < threshold.

See these solved cases before continuing.
> print(dat)
                                   compound  class.name
1  CN1CCN(S(=O)(=O)N(Cc2ccc(-c3nnc(C(F)F)o3)cc2F)c2cccnc2)CC1 [Compound 11320]          No
2  CC(=O)N1CCN(S(=O)(=O)N(Cc2ccc(-c3nnc(C(F)(F)F)o3)cc2F)c2cccc(F)c2)CC1 [Compound 11311]          No
3  CCN1CCN(S(=O)(=O)N(Cc2ccc(-c3nnc(C(F)F)o3)cc2F)c2ccccc2)CC1 [Compound 11307]         Yes

Q. Could you verify whether the entry O=S(=O)(N1CCN(C2COC2)CC1)N(Cc1ccc(-c2nnc(C(F)F)o2)cn1)c1ccccc1 [Compound 11574] shows HDAC6 selectivity (fold) of no less than 2000 fold?
A. Yes

Source: patent US10464911B2
